# Test system: C. elegans VP596 Phsp-16.2 GFP/RFP heat-shock reporter
# Protocol Notes: heat-induced hsp-16.2 reporter inhibition in nematodes, SAR follow-up, counter-screen for SKN-1 inhibitor project, whole organism, C. elegans VP596, GFP/RFP ratio fluorescence (AID 651993)
Calls of active or inactive are those of the source.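 The calls were made as follows: active = compounds with mean IC50 at or below 50 µM in this heat-shock counterscreen, flagging likely artifacts; inactive = the rest.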
Could you please pick one outcome from this set? 1 (active), 0 (inactive)

Some entries whose results are on file:
molecule=Clc1ccc(Nc2nc(-c3cccs3)cs2)nc1 class_name=0
molecule="COc1cc(CNC(C)c2ccccc2)cc(Br)c1OCc1ccc(F)cc1 (stereo unspecified)" class_name=0
molecule=Cc1nc2ccccc2cc1OCc1ccc(F)cc1 class_name=1
molecule=O=C(Nc1nc(-c2ccc(Cl)s2)cs1)c1cccs1 class_name=0
molecule=CCOC(=O)Nc1nc(-c2ccc(F)cc2F)cs1 class_name=0

Pending molecule:
input: Status in this test for `c1ccc(-c2csc(-c3ccncc3)n2)cc1` ?
output: 0
